system name: second (BD2: amino acids E352-E168) bromodomain of BRD4 (Homo sapiens, UniProt O60885)
Construct: protocol
experimental details: TR-FRET bromodomain binding assay, BRD4 BD2
cond: TR-FRET assay protocol (A-G, compound concentration range); Ki calculated from IC50, probe Kd and probe concentration; read-out: TR-FRET Binding Ki: BRD4 (BDII_E352-M457)
measurement label: log10 Ki (log10 of the value in nM)
In plain terms, each number is the log10 of measured Ki in nM.

Solved entries (count: 10):
| compound | measurement label | recorded measurement |
| --- | --- | --- |
| Cn1nc(-c2cc([N+](=O)[O-])ccc2Oc2ccccc2)ccc1=O [Example 9] | log10 Ki | 3.97 |
| CCS(=O)(=O)Nc1ccc(Oc2ccc(F)cc2F)c(-c2cn(C)c(=O)cc2OC2CCC2)c1 [Example 367] | log10 Ki | -0.28 |
| Cn1nc(-c2cc(CNC(=O)C(F)(F)F)ccc2Oc2ccccc2)ccc1=O [Example 17] | log10 Ki | 3.66 |
| CCS(=O)(=O)Nc1ccc(Oc2ccc(F)cc2F)c(-c2cc(F)c(=O)n(C)c2)c1 [Example 352] | log10 Ki | 1.89 |
| CCOc1cc(=O)n(C)cc1-c1cc(NC(=O)c2ccc(-c3ccccc3)cc2)ccc1Oc1ccc(F)cc1F [Example 304] | log10 Ki | 2.56 |
| Cn1cc(-c2cc(NS(C)(=O)=O)ccc2Oc2ccc(F)cc2F)ccc1=O [Example 240] | log10 Ki | 2.03 |
| Cc1ccc(S(=O)(=O)Nc2ccc(Oc3ccccc3)c(-c3ccc(=O)n(C)n3)c2)cc1 [Example 11] | log10 Ki | 3.64 |
| CCOc1ccc(-c2cc(=O)n(C)nc2-c2ccccc2Oc2ccccc2)cc1 [Example 117] | log10 Ki | 2.79 |
| Cn1nc(-c2ccccc2Oc2ccccc2)c(-c2cnn(Cc3ccccc3)c2)cc1=O [Example 113] | log10 Ki | 2.50 |
| COc1cc(-c2cc(=O)n(C)nc2-c2ccccc2Oc2ccccc2)ccn1 [Example 57] | log10 Ki | 2.40 |

Req: Give log10 Ki for this entry on second (BD2: amino acids E352-E168) bromodomain of BRD4 (Homo sapiens, UniProt O60885): COC(=O)c1cc(=O)n(C)nc1-c1ccccc1Oc1ccccc1 [Example 218]
Resp: 3.06

Req: Check second (BD2: amino acids E352-E168) bromodomain of BRD4 (Homo sapiens, UniProt O60885) data and give log10 Ki for COC(=O)CS(=O)(=O)Nc1ccc(Oc2ccccc2)c(-c2ccc(=O)n(C)c2)c1 [Example 225] .
Resp: 2.03

Req: Enter log10 Ki (test system second (BD2: amino acids E352-E168) bromodomain of BRD4 (Homo sapiens, UniProt O60885)) for CC(=O)NCc1ccc(Oc2ccccc2)c(-c2ccc(=O)n(C)n2)c1 [Example 16]
Resp: 3.93

Req: Enter measured log10 Ki, system second (BD2: amino acids E352-E168) bromodomain of BRD4 (Homo sapiens, UniProt O60885), for the compound shown: COc1ccc(-c2cc(=O)n(C)nc2-c2ccccc2Oc2ccccc2)cn1 [Example 116]
Resp: 2.74

Req: Find the measured log10 Ki of Cc1ccc(-c2cc(=O)n(C)nc2-c2ccccc2Oc2ccccc2)o1 [Example 211] with second (BD2: amino acids E352-E168) bromodomain of BRD4 (Homo sapiens, UniProt O60885) as test system.
Resp: 3.18

Req: Please respond with reported log10 Ki (system second (BD2: amino acids E352-E168) bromodomain of BRD4 (Homo sapiens, UniProt O60885)) for Cn1nc(-c2ccccc2Oc2ccccc2)c(-c2ccnc(N3CCOCC3)c2)cc1=O [Example 153] .
Resp: 3.49

Req: Lab note: second (BD2: amino acids E352-E168) bromodomain of BRD4 (Homo sapiens, UniProt O60885) assay, enter log10 Ki for COc1ccccc1Oc1ccc(NS(C)(=O)=O)cc1-c1ccc(=O)n(C)c1 [Example 238] here
Resp: 1.70
